# Tested on: RBCs membrane
# assay.comment: Fluorescence spectroscopy of the RBCs membrane (DPH probe anisotropy)
# Type: cell-based, human
# setup.conditions: membranes of RBCs, 100 µM, 37 °C
metric: Fluorescence anisotropy of the DPH probe
Respond using a number only.

[
  {
    "compound": "CC(O)C(O)c1ccc2c(c1)OCO2 (stereo not shown)",
    "Fluorescence anisotropy of the DPH probe": 0.252
  },
  {
    "compound": "COc1ccc(C(=O)C(C)O)cc1OC (stereo not shown)",
    "Fluorescence anisotropy of the DPH probe": 0.263
  },
  {
    "compound": "COc1ccc(C(O)C(C)O)cc1 (stereo not shown)",
    "Fluorescence anisotropy of the DPH probe": 0.262
  },
  {
    "compound": "COc1ccc(C(=O)C(C)O)cc1 (stereo not shown)",
    "Fluorescence anisotropy of the DPH probe": 0.244
  },
  {
    "compound": "CC(O)C(=O)c1ccccc1 (stereo not shown) [2c, 2-hydroxy-1-phenylpropan-1-one]",
    "Fluorescence anisotropy of the DPH probe": 0.238
  }
]

Tell me the measured Fluorescence anisotropy of the DPH probe of COc1ccc(C(O)C(C)O)cc1OC (stereo not shown) , please. 0.290

Can you handle COc1cc(C(O)C(C)O)ccc1O (stereo not shown) next? 0.272

====

# hemolysis at 1 h, 20 µM per entry
# assay.comment: Haemolytic activity assay
# Assay type: cell-based
# setup.conditions: human red blood cells (RBCs) from healthy donors, 20 µM, 37°C, read-out: Percentage of haemolysis
Express your answer in %, writing the number without its unit.

The examples below pair each entry with its known result.
[
  {
    "compound": "COc1ccc(C(O)C(C)O)cc1 (stereo not drawn) [3b, 1-(4-methoxyphenyl)propane-1,2-diol]",
    "value.units": "%",
    "hemolysis at 1 h, 20 µM": 2.98
  },
  {
    "compound": "CC(O)C(O)c1ccccc1 (stereo not drawn) [2b, 1-phenylpropane-1,2-diol]",
    "value.units": "%",
    "hemolysis at 1 h, 20 µM": 1.08
  },
  {
    "compound": "CC(O)C(=O)c1ccc2c(c1)OCO2 (stereo not drawn) [1c]",
    "value.units": "%",
    "hemolysis at 1 h, 20 µM": 1.17
  },
  {
    "compound": "CC(O)C(=O)c1ccccc1 (stereo not drawn) [2c, 2-hydroxy-1-phenylpropan-1-one]",
    "value.units": "%",
    "hemolysis at 1 h, 20 µM": 1.86
  },
  {
    "compound": "CC(O)C(O)c1ccc2c(c1)OCO2 (stereo not drawn) [1b, 1-(1,3-benzodioxol-5-yl)propane-1,2-diol]",
    "value.units": "%",
    "hemolysis at 1 h, 20 µM": 1.86
  },
  {
    "compound": "CC=Cc1ccc(OC)c(OC)c1 [4a, 1,2-dimethoxy-4-prop-1-en-1-yl benzene]",
    "value.units": "%",
    "hemolysis at 1 h, 20 µM": 1.48
  }
]

State the recorded hemolysis at 1 h, 20 µM for this entry: COc1ccc(C(O)C(C)O)cc1OC (stereo not drawn) [4b, 1-(3,4-dimethoxyphenyl)propane-1,2-diol] 1.52

Do the same for COc1ccc(C(=O)C(C)O)cc1 (stereo not drawn) [3c] please 1.65

How about COc1cc(C(O)C(C)O)ccc1O (stereo not drawn) [5b] ? 1.55

Same read-out for C/C=C/c1ccc(OC)cc1 [3a, anethole] ? 1.14

Now the same for COc1ccc(C(=O)C(C)O)cc1OC (stereo not drawn) [4c] 1.93

Record: C/C=C/c1ccc2c(c1)OCO2 [1a, isosafrole] 1.54

====

# assay.comment: Haemolytic activity assay
# Assay type: cell-based
# setup.conditions: human red blood cells (RBCs) from healthy donors, 80 µM, 37°C, read-out: Percentage of haemolysis
metric: hemolysis at 1 h, 80 µM (%)
Write the value in % as a bare number.

Study these solved cases before continuing.
[
  {
    "compound": "COc1cc(C(O)C(C)O)ccc1O (stereo not drawn)",
    "value.units": "%",
    "hemolysis at 1 h, 80 µM": 2.58
  },
  {
    "compound": "CC(O)C(O)c1ccc2c(c1)OCO2 (stereo not drawn)",
    "value.units": "%",
    "hemolysis at 1 h, 80 µM": 2.39
  },
  {
    "compound": "C/C=C/c1ccc(OC)cc1",
    "value.units": "%",
    "hemolysis at 1 h, 80 µM": 2.2
  },
  {
    "compound": "COc1ccc(C(=O)C(C)O)cc1OC (stereo not drawn)",
    "value.units": "%",
    "hemolysis at 1 h, 80 µM": 2.02
  },
  {
    "compound": "CC(O)C(O)c1ccccc1 (stereo not drawn)",
    "value.units": "%",
    "hemolysis at 1 h, 80 µM": 1.79
  }
]

Query: hemolysis at 1 h, 80 µM; subject: COc1ccc(C(O)C(C)O)cc1OC (stereo not drawn) 1.19

What about this compound? CC(O)C(=O)c1ccccc1 (stereo not drawn) [2c, 2-hydroxy-1-phenylpropan-1-one] 1.94

Same again, this time with C/C=C/c1ccc2c(c1)OCO2 2.58

Repeat for the following compound: COc1ccc(C(O)C(C)O)cc1 (stereo not drawn) 2.4

Same question for CC=Cc1ccc(OC)c(OC)c1 please. 2.48

Similarly, COc1ccc(C(=O)C(C)O)cc1 (stereo not drawn) ? 2.15

Next up: CC(O)C(=O)c1ccc2c(c1)OCO2 (stereo not drawn) 1.41

====

# System: RBCs membrane
# assay.comment: Fluorescence spectroscopy of the RBCs membrane (DPH probe anisotropy)
# Type: cell-based, human
# setup.conditions: membranes of RBCs, 100 µM, 37 °C
# Fluorescence anisotropy of the DPH probe annotations
Lab note: jot the number down without any unit.

Check out these entries, answers already filled in.
[
  {
    "compound": "C/C=C/c1ccc2c(c1)OCO2",
    "measured.target": "RBCs membrane",
    "Fluorescence anisotropy of the DPH probe": 0.237
  },
  {
    "compound": "CC(O)C(=O)c1ccc2c(c1)OCO2 (stereo not drawn)",
    "measured.target": "RBCs membrane",
    "Fluorescence anisotropy of the DPH probe": 0.277
  },
  {
    "compound": "C/C=C/c1ccc(OC)cc1",
    "measured.target": "RBCs membrane",
    "Fluorescence anisotropy of the DPH probe": 0.259
  },
  {
    "compound": "CC=Cc1ccccc1",
    "measured.target": "RBCs membrane",
    "Fluorescence anisotropy of the DPH probe": 0.267
  }
]

Param item = CC(O)C(O)c1ccccc1 (stereo not drawn) ; retrieve measured Fluorescence anisotropy of the DPH probe. 0.278

Moving on to CC=Cc1ccc(OC)c(OC)c1 0.269

====

# assay.comment: Haemolytic activity assay
# Type: cell-based
# setup.conditions: human red blood cells (RBCs) from healthy donors, 10 µM, 37°C, read-out: Percentage of haemolysis
metric: hemolysis at 1 h, 10 µM (%)
The answer is to be given in %; state only the numeric part.

Here's what some known entries look like.
[
  {
    "molecule": "COc1ccc(C(O)C(C)O)cc1OC (stereo not drawn)",
    "value.units": "%",
    "hemolysis at 1 h, 10 µM": 1.64
  },
  {
    "molecule": "CC=Cc1ccc(OC)c(OC)c1",
    "value.units": "%",
    "hemolysis at 1 h, 10 µM": 1.76
  },
  {
    "molecule": "C/C=C/c1ccc(OC)cc1",
    "value.units": "%",
    "hemolysis at 1 h, 10 µM": 1.36
  },
  {
    "molecule": "COc1ccc(C(=O)C(C)O)cc1OC (stereo not drawn)",
    "value.units": "%",
    "hemolysis at 1 h, 10 µM": 1.48
  }
]

Let us move to another entry and its hemolysis at 1 h, 10 µM.
Which hemolysis at 1 h, 10 µM value is on record for C/C=C/c1ccc2c(c1)OCO2 ? 2.41

====

# assay.comment: Haemolytic activity assay
# Assay type: cell-based
# setup.conditions: human red blood cells (RBCs) from healthy donors, 40 µM, 37°C, read-out: Percentage of haemolysis
metric: hemolysis at 1 h, 40 µM (%)
Enter your answer as a number in %; do not include the unit.

Sample answers from the record:
[
  {
    "molecule": "C/C=C/c1ccc(OC)cc1",
    "hemolysis at 1 h, 40 µM [%]": 2.23
  },
  {
    "molecule": "COc1ccc(C(O)C(C)O)cc1OC (stereo not drawn)",
    "hemolysis at 1 h, 40 µM [%]": 1.42
  },
  {
    "molecule": "C/C=C/c1ccc2c(c1)OCO2",
    "hemolysis at 1 h, 40 µM [%]": 2.18
  }
]

Which measured hemolysis at 1 h, 40 µM value corresponds to CC(O)C(=O)c1ccccc1 (stereo not drawn) [2c, 2-hydroxy-1-phenylpropan-1-one] ? 1.42

Consider next the molecule COc1cc(C(O)C(C)O)ccc1O (stereo not drawn) in the same way. 1.52

Also CC(O)C(O)c1ccccc1 (stereo not drawn) , if possible. 1

Numbers sourced from paper PMC10330721.
